measured.target: human Nav1.8 (hNav1.8) ion channel (Homo sapiens)
Construct: expressed in transfected cells
Sequence (Q9Y5Y9 whole entry): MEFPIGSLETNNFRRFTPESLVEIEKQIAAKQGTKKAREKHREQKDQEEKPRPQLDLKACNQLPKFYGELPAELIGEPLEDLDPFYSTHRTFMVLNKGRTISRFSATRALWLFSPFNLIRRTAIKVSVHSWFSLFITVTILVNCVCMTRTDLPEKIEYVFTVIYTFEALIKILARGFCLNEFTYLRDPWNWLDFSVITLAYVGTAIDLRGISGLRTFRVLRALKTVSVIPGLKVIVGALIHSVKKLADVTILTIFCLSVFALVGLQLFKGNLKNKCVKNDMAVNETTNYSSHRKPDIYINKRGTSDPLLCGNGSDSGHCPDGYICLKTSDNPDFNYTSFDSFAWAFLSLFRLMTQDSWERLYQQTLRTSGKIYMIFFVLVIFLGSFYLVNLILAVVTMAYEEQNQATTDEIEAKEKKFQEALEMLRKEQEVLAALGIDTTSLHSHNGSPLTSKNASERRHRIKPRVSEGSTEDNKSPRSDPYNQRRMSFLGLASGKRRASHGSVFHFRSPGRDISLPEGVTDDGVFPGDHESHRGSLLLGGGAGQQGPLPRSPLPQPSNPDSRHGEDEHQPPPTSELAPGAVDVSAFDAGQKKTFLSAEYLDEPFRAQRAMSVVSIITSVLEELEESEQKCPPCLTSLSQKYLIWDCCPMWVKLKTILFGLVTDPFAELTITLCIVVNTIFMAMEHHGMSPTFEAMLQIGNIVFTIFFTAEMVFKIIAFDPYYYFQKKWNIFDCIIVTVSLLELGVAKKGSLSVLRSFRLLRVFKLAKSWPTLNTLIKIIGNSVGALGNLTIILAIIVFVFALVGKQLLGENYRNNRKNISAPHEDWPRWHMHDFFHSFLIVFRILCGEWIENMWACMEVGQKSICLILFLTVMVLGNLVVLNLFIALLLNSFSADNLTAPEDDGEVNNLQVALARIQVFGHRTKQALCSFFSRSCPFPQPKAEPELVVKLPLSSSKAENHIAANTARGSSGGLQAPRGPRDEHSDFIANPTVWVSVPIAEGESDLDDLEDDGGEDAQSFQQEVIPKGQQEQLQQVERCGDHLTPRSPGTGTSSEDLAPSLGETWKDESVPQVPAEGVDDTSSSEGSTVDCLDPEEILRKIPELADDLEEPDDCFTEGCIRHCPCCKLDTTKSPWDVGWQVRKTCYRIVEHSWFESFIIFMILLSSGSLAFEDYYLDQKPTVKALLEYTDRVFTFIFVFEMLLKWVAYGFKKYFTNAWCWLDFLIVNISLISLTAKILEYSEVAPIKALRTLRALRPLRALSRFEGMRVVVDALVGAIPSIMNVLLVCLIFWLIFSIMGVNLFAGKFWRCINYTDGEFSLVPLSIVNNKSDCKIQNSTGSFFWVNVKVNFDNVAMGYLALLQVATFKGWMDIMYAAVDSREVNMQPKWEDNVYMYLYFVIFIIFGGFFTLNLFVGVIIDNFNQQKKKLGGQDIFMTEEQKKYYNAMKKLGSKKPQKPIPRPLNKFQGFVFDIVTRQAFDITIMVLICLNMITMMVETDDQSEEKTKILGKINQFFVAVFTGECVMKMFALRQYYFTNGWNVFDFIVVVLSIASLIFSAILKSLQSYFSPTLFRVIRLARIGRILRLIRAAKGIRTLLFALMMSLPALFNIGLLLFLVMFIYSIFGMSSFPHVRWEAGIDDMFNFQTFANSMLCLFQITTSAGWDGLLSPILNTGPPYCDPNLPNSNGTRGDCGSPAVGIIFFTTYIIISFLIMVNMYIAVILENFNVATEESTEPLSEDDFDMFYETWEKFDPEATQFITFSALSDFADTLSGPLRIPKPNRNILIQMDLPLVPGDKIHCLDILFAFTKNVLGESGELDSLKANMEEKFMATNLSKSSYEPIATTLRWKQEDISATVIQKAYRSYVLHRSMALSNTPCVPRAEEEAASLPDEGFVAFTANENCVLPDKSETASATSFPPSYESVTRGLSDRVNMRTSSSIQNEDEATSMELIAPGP
experiment.notes: Inhibition of human Nav1.8 stably expressed in SH-SY-5Y cells (membrane potential dye fluorescence assay)
Assay type: cell-based
condition.label: hNav1.8 IC50, SH-SY-5Y hNav1.8 cells; FLIPR membrane potential dye; 10 μM pyrethroid, 250 nM TTX; test concentration range 100 μM-0.05 μM
Method: Inhibition of Human Nav1.8 stably expressed in SH-SY-5Y Cells A SH-SY-5Y neuroblastoma cell line stably expressing the human Nav1.8 (hNav1.8) ion channel was constructed. […] Cell plates are incubated for 30 minutes at room temperature to allow equilibration of dye and test compound. Plates are then transferred to a fluorescence plate reader for fluorescence measurement using an excitation wavelength of 530 nm whilst measuring fluorescence emission at 565 nm. […]
pIC50: −log10 of the molar value. Where a name gives a salt, the structure may show the parent alone.
Tick Met if pIC50 is 6 or greater. Tick Not met if pIC50 is less than 6.

Does pIC50 meet or surpass 6 for CC(c1ccc(F)cc1Cl)N1CC2CC1CN2C(=O)Cc1ccc(Oc2ccc(F)cc2)cc1 (single isomer, unassigned) [Example 161] ?
Not met

Does pIC50 meet or surpass 6 for CC(c1ccc(Cl)cc1Cl)N1CC2CC1CN2C(=O)Cc1ccc(Oc2ccc(F)cc2)cc1 (centres unmarked) [Example 155] ?
Not met

Does pIC50 meet or surpass 6 for CC(c1ccccc1Br)N1CC2CC1CN2C(=O)Cc1ccc(Oc2ccc(F)cc2)cc1 (centres unmarked) [Example 154] ?
Not met

Does pIC50 meet or surpass 6 for O=C(Cc1ccc(C(F)(F)F)cc1)N1CC2CC1CN2C1CCc2ccccc2C1 (centres unmarked) [Example 147] ?
Not met

Does pIC50 meet or surpass 6 for Cc1ccccc1C(C)N1CC2CC1CN2C(=O)Nc1ccc(Oc2ccc(F)cc2)cc1 (single isomer, unassigned) [Example 29] ?
Met

Does pIC50 meet or surpass 6 for Cc1ccccc1C(C)N1CC2CC1CN2C(=O)Nc1ccc(Oc2ccc(F)cc2)cc1 (centres unmarked) [Example 78, fumarate salt] ?
Met

Does pIC50 meet or surpass 6 for CC(c1ccccc1Cl)N1CC2CC1CN2C(=O)Cc1ccc(Oc2cccc(F)c2)cc1 (centres unmarked) [Example 170] ?
Not met
